Where do the numbers come from? From ChEMBL document CHEMBL2176988.

tested.on: Neuronal acetylcholine receptor subunit alpha-7 (Homo sapiens, UniProt P36544)
Sequence (P36544 whole entry): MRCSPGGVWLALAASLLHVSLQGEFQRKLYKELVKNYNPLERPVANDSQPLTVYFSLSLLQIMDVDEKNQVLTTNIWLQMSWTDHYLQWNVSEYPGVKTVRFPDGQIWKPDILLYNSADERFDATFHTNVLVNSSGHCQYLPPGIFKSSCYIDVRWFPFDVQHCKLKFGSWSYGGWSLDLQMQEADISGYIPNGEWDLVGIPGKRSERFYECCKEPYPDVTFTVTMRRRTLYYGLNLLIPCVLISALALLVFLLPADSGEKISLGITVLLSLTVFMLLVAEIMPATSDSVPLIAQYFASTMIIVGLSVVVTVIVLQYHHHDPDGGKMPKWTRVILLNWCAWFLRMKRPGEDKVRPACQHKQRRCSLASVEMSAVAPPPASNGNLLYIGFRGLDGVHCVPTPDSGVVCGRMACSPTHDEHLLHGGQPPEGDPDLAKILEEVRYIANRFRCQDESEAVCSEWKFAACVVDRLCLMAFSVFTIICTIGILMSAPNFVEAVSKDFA
assay: Displacement of [3H]epibatidine from human alpha7 nAChR expressed in CHO cells after 2 hrs by liquid scintillation counting
Assignment: determine reported Ki for the given molecules.

molecule	Ki
O=C(c1ccncc1)N1CC2CNCC(C2)C1	> 10 µM
O=C(c1cccnc1)N1CC2CNCC2C1 (configuration not stated)	20 µM
O=C(c1occc1Cl)N1CC2CNCC(C2)C1	> 10 µM
Cc1ccc(C(=O)N2CC3CNCC3C2)o1 (configuration not stated)	8.2 µM
O=C(c1occc1Br)N1CC2CNCC2C1 (configuration not stated)	6.3 µM
O=C(c1occc1Cl)N1CC2CNCC2C1 (configuration not stated)	2.6 µM

Task: Look up Ki: O=C(c1cc(F)co1)N1CC2CNCC2C1 (configuration not stated)
Result: > 10 µM
